# Tested on: P. falciparum male gametocytes
# experimentalDetails: P. falciparum Dual Gamete Formation Assay (PfDGFA), male readout (exflagellation)
# Type: cell-based, Plasmodium falciparum NF54
# appliedConditions: Plasmodium falciparum; 2µM, 24h preincubation with gametocytes; replicate R2; read-out: % inhibition male (individual replicates) R2
inhibition at 2 µM for assorted molecules
Report as a plain number; the unit % is understood.

Solved entries:
molecule="COc1ccc(Nc2ncc(OC)c(Nc3ccccc3C(N)=O)n2)cc1N1CCN(C)CC1.O=CO [TCMDC-134149]" valuetype="inhibition at 2 µM" measurementunit=% measured=101
molecule="CNC(=O)c1ccccc1Nc1nc(Nc2ccc(N3CCN(C)CC3)nc2)ncc1C.Cl [TCMDC-134123]" valuetype="inhibition at 2 µM" measurementunit=% measured=95.8
molecule="O=C(O)CCSSc1cccc[n+]1[O-] [TCMDC-141973]" valuetype="inhibition at 2 µM" measurementunit=% measured=96.8

stdin: # input molecule: COc1ccc2nc(N=C3NC4(c5ccccc5)NC(=Nc5nc6ccc(OC)cc6[nH]5)NC4(c4ccccc4)N3)[nH]c2c1.O=C(O)C(F)(F)F (stereo not shown) [TCMDC-139632] ; wanted: its inhibition at 2 µM
stdout: 96.3
